Test system: Fibroblast
Experiment: Multiplex assay against human fibroblast
Assay type: toxicity, cell-based
Settings: 48 h, 1 µM, compound concentration 1 uM, replicate 1
Would you kindly list Population Tubulin-Different-Phenotype (%) for each of these compounds?
Numbers only, in %.

Examples with answers:
CCC(=O)O[C@]1(C(=O)SCF)[C@H](C)C[C@H]2[C@@H]3C[C@H](F)C4=CC(=O)C=C[C@]4(C)[C@@]3(F)[C@@H](O)C[C@@]21C [FLUTICASONE PROPIONATE]: 38
Cl.Cl.Nc1ncnc2c1c(-c1cccc(OCc3ccccc3)c1)cn2[C@H]1C[C@@H](CN2CCC2)C1: 33
COc1ccc(NS(=O)(=O)c2sc3ccc(Cl)cc3c2C)cc1N1CCNCC1.Cl: 21
COc1cc2c(NC3CCN(C(C)C)CC3)nc(N3CCC(F)(F)CC3)nc2cc1OCCCN1CCCC1: 29
CCCn1c(=O)c2[nH]c(C34CC5CC(CC3C5)C4)nc2n(CCC)c1=O: 58

Could you report Population Tubulin-Different-Phenotype (%) for every entry in the following list?
1. Cc1nc(Cc2cccc(C(F)(F)F)c2)sc1-c1ccc(C(N)=O)nc1 [TP-024n]
2. O=C(O)c1ccc2cc(-c3ccc(O)c(C45CC6CC(CC(C6)C4)C5)c3)ccc2c1
3. CC(C)N1CCC(C)(C)c2cc(C#Cc3ccc(C(=O)O)cc3)ccc21
4. Nc1nc2c(c(N3CCNCC3)n1)CCC1=C2[C@@H]2CCCC[C@@H]2O1
5. CC(=O)c1cc(-c2cc(C(=O)NC3CC3)ccc2C)c2ncccn12
6. CCn1c(-c2nonc2N)nc2cnc(Oc3cccc(NC(=O)c4ccc(OCCN5CCOCC5)cc4)c3)cc21 [GSK-269962A]

1. 31
2. 5
3. 29
4. 22
5. 20
6. 29

Provide Population Tubulin-Different-Phenotype (%) values for the following items, in order.
1. Nc1ccc(C(=O)Nc2cccc(-c3nc(N4CCOCC4)c4oc5ncccc5c4n3)c2)cn1
2. Cc1cc2c(cc1N1C(=O)c3cccc4c(CCCO)ccc(c34)C1=O)n(C)c(=O)n2C
3. CCc1cc2c(cc1CC)CC(NC[C@H](O)c1ccc(O)c3[nH]c(=O)ccc13)C2

60
30
20

* * *

System: Fibroblast
Assay: Incucyte cell viability with human fibroblast; also: filed as whole numbers so only -1 and 0 and 1 occur
Format: toxicity, cell-based
Settings: 24 h, 10 µM, compound concentration 10 uM, replicate number 2, timepoint 24 hours
measurement kind: Growth Rate
One number for each entry.

CN(C)C(=O)Cn1cc(-c2nc(C3(c4ccc(-c5cnc(N)nc5)cc4)CC3)no2)cn1: 1
CNc1nc(Nc2cnn([C@H]3CCN(C4COC4)C[C@@H]3F)c2Cl)ncc1C(F)(F)F: 1
COc1cc2c(NC3CCN(C(C)C)CC3)nc(N3CCC(F)(F)CC3)nc2cc1OCCCN1CCCC1: 0

For the 2 compounds below, give their Growth Rate values.
1. C=CCN1C[C@H](C)N([C@H](c2ccc(C(=O)N(CC)CC)cc2)c2cccc(O)c2)C[C@H]1C
2. COc1cccc(CNC(=O)c2nc3scc(CN(C)Cc4ccccc4)c3c(=O)[nH]2)c1 [T-26f]

[0, 1]

Working through the 3 compounds below one at a time, give Growth Rate for each.
1. CC(C)CC(=O)N1CCc2nc(-c3ccc(Br)cc3)nc(N(C)Cc3ccccc3)c2C1
2. CCCCc1nc(Cl)c(CO)n1Cc1ccc(-c2ccccc2-c2nn[nH]n2)cc1
3. CNc1cc2[nH]c(=O)n(-c3ccc(NC(=O)NS(=O)(=O)c4ccc(Cl)s4)cc3)c(=O)c2cc1F

1. 0
2. 0
3. 0

* * *

System: Fibroblast
Assay: Multiplex assay against human fibroblast
Format: toxicity, cell-based
Conditions: 12 h, 1 µM, compound concentration 1 uM, replicate 1
Please provide measured Population Pyknosed Nuclei (%) for the entries that follow.
One number for each entry, in %.

CCOc1cc(N2CCC(O)CC2)ccc1Nc1ncc2c(n1)N(C1CCCC1)CCC(=O)N2C: 16
c1ccc2oc(-c3csc(C4CCN(Cc5nc6ncccc6[nH]5)CC4)n3)cc2c1: 13
Cc1nc(Cc2cccc(C(F)(F)F)c2)sc1-c1ccc(C(N)=O)nc1 [TP-024n]: 37
CCC(=O)O[C@]1(C(=O)SCF)[C@H](C)C[C@H]2[C@@H]3C[C@H](F)C4=CC(=O)C=C[C@]4(C)[C@@]3(F)[C@@H](O)C[C@@]21C [FLUTICASONE PROPIONATE]: 31

// input: 7 molecules below; output: Population Pyknosed Nuclei (%) for each
1. O=C(O)c1ccc2cc(-c3ccc(O)c(C45CC6CC(CC(C6)C4)C5)c3)ccc2c1
2. COc1ccc(NS(=O)(=O)c2sc3ccc(Cl)cc3c2C)cc1N1CCNCC1.Cl
3. CNC(=O)c1cc(Oc2ccc(NC(=O)Nc3cc(C(C)(C)C)nn3-c3ccc4ncccc4c3)c(F)c2)ccn1
4. CCn1c(-c2nonc2N)nc2cnc(Oc3cccc(NC(=O)c4ccc(OCCN5CCOCC5)cc4)c3)cc21 [GSK-269962A]
5. CN(C)CCOc1ccc(-c2nc(-c3ccncc3)c(-c3ccc4c(c3)CC/C4=N\O)[nH]2)cc1
6. CN(C)C/C=C/C(=O)Nc1cc2c(Nc3ccc(F)c(Cl)c3)ncnc2cc1O[C@H]1CCOC1.O=C(O)/C=C\C(=O)O.O=C(O)/C=C\C(=O)O [AFATINIB DIMALEATE]
7. CCCn1c(=O)c2[nH]c(C34CC5CC(CC3C5)C4)nc2n(CCC)c1=O

1: 43; 2: 35; 3: 9; 4: 33; 5: 30; 6: 16; 7: 31

* * *

System: Fibroblast
Test: Multiplex assay against human fibroblast
Assay type: toxicity, cell-based
Settings: 12 h, 10 µM, compound concentration 10 uM, replicate 2
If the reported Population Hoechst High Intensity Objects (%) equals or exceeds 9%, assign Satisfied. If not, assign Not satisfied.

Field: example entries. Status: answers known.
Nc1nc2c(c(N3CCNCC3)n1)CCC1=C2[C@@H]2CCCC[C@@H]2O1: Not satisfied
COc1cc2c(Nc3ccc(NC(=O)c4ccccc4)cc3)ncnc2cc1OCCCN1CCOCC1: Satisfied
Cc1cn(-c2cc(NC(=O)c3ccc4c(c3)CN(c3cncnc3)C[C@@H]4C)cc(C(F)(F)F)c2)cn1: Satisfied

Okay, next one:
Evaluate O=C(O)c1ccc2cc(-c3ccc(O)c(C45CC6CC(CC(C6)C4)C5)c3)ccc2c1 [O-DEMETHYLATED ADAPALENE] : Population Hoechst High Intensity Objects (%) at minimum 9%?
Not satisfied

* * *

Tested on: HEK-293T
Test: Multiplex assay against HEK293T
Type: toxicity, cell-based
Conditions: human, 12 h, 10 µM, compound concentration 10 uM, replicate 1
So I've got a bunch of compounds here, and I need their Population Pyknosed Nuclei (%) values.
Answers are plain numbers, in %.

CCOc1cc2ncc(C#N)c(Nc3ccc(OCc4cccc(F)c4)c(Cl)c3)c2cc1NC(=O)/C=C/CN(C)C: 35

Give me Population Pyknosed Nuclei (%) for each of these compounds, listed below.
1. CN(C)C/C=C/C(=O)Nc1cc2c(Nc3ccc(F)c(Cl)c3)ncnc2cc1O[C@H]1CCOC1.O=C(O)/C=C\C(=O)O.O=C(O)/C=C\C(=O)O [AFATINIB DIMALEATE]
2. CC(C)(C)c1cnc(CSc2cnc(NC(=O)C3CCNCC3)s2)o1
3. CCC(=O)O[C@]1(C(=O)SCF)[C@H](C)C[C@H]2[C@@H]3C[C@H](F)C4=CC(=O)C=C[C@]4(C)[C@@]3(F)[C@@H](O)C[C@@]21C [FLUTICASONE PROPIONATE]
4. COc1ccc(NS(=O)(=O)c2sc3ccc(Cl)cc3c2C)cc1N1CCNCC1.Cl

50
33
56
59

* * *

Test system: HEK-293T
Assay: Multiplex assay against HEK293T
Format: toxicity, cell-based
Conditions: human, 24 h, 1 µM, compound concentration 1 uM, replicate 2
measurement kind: Population Normal (%)
Numbers only, in %.

CNC(=O)c1nn(C)c2c1C(C)(C)Cc1cnc(Nc3ccc(N4CCN(C)CC4)cc3)nc1-2 [MILCICLIB]: 90
COc1cc(N2CCC(N(C)C)CC2)ccc1Nc1ncc(Cl)c(Nc2ccccc2P(C)(C)=O)n1: 95
CN(C)C/C=C/C(=O)Nc1cc2c(Nc3ccc(F)c(Cl)c3)ncnc2cc1O[C@H]1CCOC1.O=C(O)/C=C\C(=O)O.O=C(O)/C=C\C(=O)O [AFATINIB DIMALEATE]: 96
N#Cc1cnc(Nc2cc(NC[C@H]3CNCCO3)c(C(F)(F)F)cn2)cn1 [SRA-737]: 95
CN(C)CCOc1ccc(-c2nc(-c3ccncc3)c(-c3ccc4c(c3)CC/C4=N\O)[nH]2)cc1 [SB590885]: 81
CCn1c(-c2nonc2N)nc2cnc(Oc3cccc(NC(=O)c4ccc(OCCN5CCOCC5)cc4)c3)cc21 [GSK-269962A]: 96

Return reported Population Normal (%) values for all items listed beneath this line.
1. CNC(=O)c1cc(Oc2ccc(NC(=O)Nc3cc(C(C)(C)C)nn3-c3ccc4ncccc4c3)c(F)c2)ccn1 [REBASTINIB]
2. COc1cc2c(NC3CCN(C(C)C)CC3)nc(N3CCC(F)(F)CC3)nc2cc1OCCCN1CCCC1
3. Cc1cc2c(cc1N1C(=O)c3cccc4c(CCCO)ccc(c34)C1=O)n(C)c(=O)n2C
4. CCC(=O)O[C@]1(C(=O)SCF)[C@H](C)C[C@H]2[C@@H]3C[C@H](F)C4=CC(=O)C=C[C@]4(C)[C@@]3(F)[C@@H](O)C[C@@]21C [FLUTICASONE PROPIONATE]
5. Cc1nc(Cc2cccc(C(F)(F)F)c2)sc1-c1ccc(C(N)=O)nc1 [TP-024n]

91
87
97
98
97
